Target: Shiga toxin 2 (Escherichia coli O157:H7) (UniProt P09385+P09386)
Assay: E. coli 0.157:H7 Shiga Toxin SOP - stx2 screening assay
Format: functional
Set-up: scale not given: direction of the effect not stated beside the values
Settings: 30 µM
measuredAttribute: Percent Effect (%)
Respond with the bare value in %.

{"compound": "COc1ccc(-c2nc(CN3CCCC3Cn3cccn3)no2)cc1 (stereo unspecified)", "endpointResult": -24.1}
{"compound": "Cc1ccc(CC(=O)N2CCN(CC(O)c3ccccc3)CC2)cn1 (stereo unspecified)", "endpointResult": 2.79}
{"compound": "Cn1ccc2c(C(=O)N3CCC(C(N)=O)CC3)cccc21", "endpointResult": -43.9}
{"compound": "CCCSCC(=O)NS(=O)(=O)c1ccc2c(c1)OCCO2", "endpointResult": 19.7}
{"compound": "Cn1ncc(NCc2cccc(COC(C)(C)C)c2)c(Cl)c1=O", "endpointResult": 12}

Prompt: # query: Percent Effect of entry CC(C)c1nnc2n1CCN(C(=O)c1ccc(OCC(N)=O)cc1)C2
Completion: -6.36

Values compiled from ChEMBL document CHEMBL3988442.
